These entries and their values trace back to ChEMBL document CHEMBL6121036.

# target_or_test_system: Protein cereblon/Bromodomain-containing protein 4 (Homo sapiens, UniProt O60885+Q96SW2)
# Sequence (Q96SW2 whole entry, looked up, other chains not shown): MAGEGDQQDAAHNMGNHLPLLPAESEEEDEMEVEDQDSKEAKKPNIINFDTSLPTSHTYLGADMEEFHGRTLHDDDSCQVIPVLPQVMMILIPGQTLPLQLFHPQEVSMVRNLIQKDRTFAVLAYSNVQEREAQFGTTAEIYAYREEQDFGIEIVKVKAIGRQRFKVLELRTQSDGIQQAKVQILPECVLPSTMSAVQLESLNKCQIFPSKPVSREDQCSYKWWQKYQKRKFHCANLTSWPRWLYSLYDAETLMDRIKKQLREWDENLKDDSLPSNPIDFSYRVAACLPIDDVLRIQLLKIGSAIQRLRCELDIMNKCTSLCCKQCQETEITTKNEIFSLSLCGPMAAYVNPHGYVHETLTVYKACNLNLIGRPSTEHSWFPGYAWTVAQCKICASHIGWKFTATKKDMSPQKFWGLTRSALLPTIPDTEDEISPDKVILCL
# protocol_text: PROTAC activity at CRBN/Hibit-tagged BRD4 (unknown origin) expressed in HEK293 cells co-expressing LgBiT assessed as degradation of BRD4 incubated for 24 hrs by […] glo-max assay
# Format: cell-based
Here the recorded DC50 is given for each entry.
assay_readout: DC50 (nM)

>>> observed_value("Cc1sc2c(c1C)C(c1ccc(Cl)cc1)=N[C@@H](CC(=O)NCCCOc1ccc(C3CCC(=O)NC3=O)cc1)c1nnc(C)n1-2 (stereo partly specified)")
0.75
>>> observed_value("Cc1sc2c(c1C)C(c1ccc(Cl)cc1)=N[C@@H](CC(=O)N1CCC(CN3CCN(c4ccc(N5CCC(=O)NC5=O)cc4)CC3)CC1)c1nnc(C)n1-2")
2.74
>>> observed_value("Cc1sc2c(c1C)C(c1ccc(Cl)cc1)=N[C@@H](CC(=O)NCCc1ccc(C3CCC(=O)NC3=O)cc1)c1nnc(C)n1-2 (stereo partly specified)")
0.19
>>> observed_value("Cc1sc2c(c1C)C(c1ccc(Cl)cc1)=N[C@@H](CC(=O)N1CCN(CC3CCN(c4ccc(C5CCC(=O)NC5=O)cc4)CC3)CC1)c1nnc(C)n1-2 (stereo partly specified)")
0.43
>>> observed_value("Cc1sc2c(c1C)C(c1ccc(Cl)cc1)=N[C@@H](CC(=O)N1CCC(CN3CCN(c4ccc5c(c4)oc(=O)n5C4CCC(=O)NC4=O)CC3)CC1)c1nnc(C)n1-2 (stereo partly specified)")
0.25
>>> observed_value("Cc1sc2c(c1C)C(c1ccc(Cl)cc1)=N[C@@H](CC(=O)N1CCC(CN3CCN(c4ccc(C5CCC(=O)NC5=O)cc4)CC3)CC1)c1nnc(C)n1-2 (stereo partly specified)")
0.19
>>> observed_value("Cc1sc2c(c1C)C(c1ccc(Cl)cc1)=N[C@@H](CC(=O)N1CCC(CN3CCN(c4ccc(NC5CCC(=O)NC5=O)c(F)c4)CC3)CC1)c1nnc(C)n1-2 (stereo partly specified)")
2.31
>>> observed_value("Cc1sc2c(c1C)C(c1ccc(Cl)cc1)=N[C@@H](CC(=O)N1CC(COc3ccc(C4CCC(=O)NC4=O)cc3)C1)c1nnc(C)n1-2 (stereo partly specified)")
13.9
>>> observed_value("Cc1sc2c(c1C)C(c1ccc(Cl)cc1)=N[C@@H](CC(=O)N1CCC(CN3CCN(c4ccc5c(c4)CN(C4CCC(=O)NC4=O)C5=O)CC3)CC1)c1nnc(C)n1-2 (stereo partly specified)")
0.58
>>> observed_value("Cc1sc2c(c1C)C(c1ccc(Cl)cc1)=N[C@@H](CC(=O)N1CCC(CN3CCN(c4ccc5c(c4)C(=O)N(C4CCC(=O)NC4=O)C5=O)CC3)CC1)c1nnc(C)n1-2 (stereo partly specified)")
1.08
>>> observed_value("Cc1sc2c(c1C)C(c1ccc(Cl)cc1)=N[C@@H](CC(=O)N1CCC(CN3CCN(c4ccc(NC5CCC(=O)NC5=O)cc4)CC3)CC1)c1nnc(C)n1-2 (stereo partly specified)")
6.51
>>> observed_value("Cc1sc2c(c1C)C(c1ccc(Cl)cc1)=N[C@@H](CC(=O)N1CCC(CN3CCN(c4cc5c(cc4F)C(=O)N(C4CCC(=O)NC4=O)C5=O)CC3)CC1)c1nnc(C)n1-2 (stereo partly specified)")
6.28
>>> observed_value("Cc1sc2c(c1C)C(c1ccc(Cl)cc1)=N[C@@H](CC(=O)N1CCC(CN3CCN(c4ccc5c(c4)n(C)c(=O)n5C4CCC(=O)NC4=O)CC3)CC1)c1nnc(C)n1-2 (stereo partly specified)")
0.57
>>> observed_value("Cc1sc2c(c1C)C(c1ccc(Cl)cc1)=N[C@@H](CC(=O)NCCCCCNC(=O)COc1ccc(C3CCC(=O)NC3=O)cc1)c1nnc(C)n1-2 (stereo partly specified)")
25

* * *

# protocol_text: AUC last in female CD1 mouse at 10 mg/kg, po measured upto 24 hrs by LC-MS/MS analysis
# Format: ADME, organism-based
# test_settings: in vivo
Listing: AUC(0-t) at 24 h of selected molecules
assay_readout: AUC(0-t) at 24 h (ng·h/mL)

>>> observed_value("Cc1sc2c(c1C)C(c1ccc(Cl)cc1)=N[C@@H](CC(=O)N1CCC(CN3CCN(c4ccc5c(c4)oc(=O)n5C4CCC(=O)NC4=O)CC3)CC1)c1nnc(C)n1-2 (stereo not given in full)")
181
>>> observed_value("Cc1sc2c(c1C)C(c1ccc(Cl)cc1)=N[C@@H](CC(=O)N1CCC(CN3CCN(c4ccc5c(c4)C(=O)N(C4CCC(=O)NC4=O)C5=O)CC3)CC1)c1nnc(C)n1-2 (stereo not given in full)")
3320
>>> observed_value("Cc1sc2c(c1C)C(c1ccc(Cl)cc1)=N[C@@H](CC(=O)N1CCC(CN3CCN(c4ccc(C5CCC(=O)NC5=O)cc4)CC3)CC1)c1nnc(C)n1-2 (stereo not given in full)")
8060
>>> observed_value("Cc1sc2c(c1C)C(c1ccc(Cl)cc1)=N[C@@H](CC(=O)N1CCC(CN3CCN(c4ccc5c(c4)n(C)c(=O)n5C4CCC(=O)NC4=O)CC3)CC1)c1nnc(C)n1-2 (stereo not given in full)")
97
>>> observed_value("Cc1sc2c(c1C)C(c1ccc(Cl)cc1)=N[C@@H](CC(=O)N1CCC(CN3CCN(c4ccc(N5CCC(=O)NC5=O)cc4)CC3)CC1)c1nnc(C)n1-2")
1420

* * *

Each entry below carries its recorded fold change (FC).
# protocol_text: Effect on CCNF level in human MV4-11 cells assessed as fold change at 100 nM measured after 4 hrs
# Format: functional
assay_readout: fold change (FC)

>>> observed_value("Cc1sc2c(c1C)C(c1ccc(Cl)cc1)=N[C@@H](CC(=O)N1CCC(CN3CCN(c4ccc5c(c4)CN(C4CCC(=O)NC4=O)C5=O)CC3)CC1)c1nnc(C)n1-2 (stereo partly drawn)")
-1.47
>>> observed_value("Cc1sc2c(c1C)C(c1ccc(Cl)cc1)=N[C@@H](CC(=O)N1CCC(CN3CCN(c4ccc5c(c4)n(C)c(=O)n5C4CCC(=O)NC4=O)CC3)CC1)c1nnc(C)n1-2 (stereo partly drawn)")
-2.01
>>> observed_value("Cc1sc2c(c1C)C(c1ccc(Cl)cc1)=N[C@@H](CC(=O)N1CCC(CN3CCN(c4ccc(C5CCC(=O)NC5=O)cc4)CC3)CC1)c1nnc(C)n1-2 (stereo partly drawn)")
-1.13

* * *

Activity: recorded values
# target_or_test_system: Protein cereblon/Bromodomain-containing protein 2 (Homo sapiens) (UniProt P25440+Q96SW2)
# Sequence (P25440 whole entry, looked up): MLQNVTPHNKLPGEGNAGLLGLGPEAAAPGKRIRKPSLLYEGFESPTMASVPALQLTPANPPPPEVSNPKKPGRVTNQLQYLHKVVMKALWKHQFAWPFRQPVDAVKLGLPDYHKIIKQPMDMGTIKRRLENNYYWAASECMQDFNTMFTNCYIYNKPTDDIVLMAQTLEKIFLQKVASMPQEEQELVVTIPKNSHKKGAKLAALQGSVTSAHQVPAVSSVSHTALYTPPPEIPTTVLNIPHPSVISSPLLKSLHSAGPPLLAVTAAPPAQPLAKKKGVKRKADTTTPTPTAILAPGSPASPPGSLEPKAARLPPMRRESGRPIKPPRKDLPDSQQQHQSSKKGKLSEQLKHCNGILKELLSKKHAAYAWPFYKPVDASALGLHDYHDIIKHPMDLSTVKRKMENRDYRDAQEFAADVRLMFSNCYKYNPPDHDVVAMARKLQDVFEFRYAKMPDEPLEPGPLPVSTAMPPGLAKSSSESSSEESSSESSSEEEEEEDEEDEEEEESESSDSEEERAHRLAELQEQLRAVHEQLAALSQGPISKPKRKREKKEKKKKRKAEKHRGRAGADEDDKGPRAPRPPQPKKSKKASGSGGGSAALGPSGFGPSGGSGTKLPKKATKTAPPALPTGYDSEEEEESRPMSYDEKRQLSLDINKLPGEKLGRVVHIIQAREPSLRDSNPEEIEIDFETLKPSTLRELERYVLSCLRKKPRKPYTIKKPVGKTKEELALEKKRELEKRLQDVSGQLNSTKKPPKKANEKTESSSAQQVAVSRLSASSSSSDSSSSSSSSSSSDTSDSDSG
# Sequence (Q96SW2 whole entry, looked up): as the sequence (Q96SW2 whole entry, looked up, other chains not shown) above
# protocol_text: PROTAC activity at CRBN/Hibit-tagged CRISPR BRD2 (unknown origin) expressed in HEK293 cells coexpressing LgBiT assessed as degradation of BRD2 by […] glo-max assay relative to control
# Assay type: cell-based
assay_readout: Activity

>>> observed_value("Cc1sc2c(c1C)C(c1ccc(Cl)cc1)=N[C@@H](CC(=O)N1CCC(CN3CCN(c4ccc5c(c4)oc(=O)n5C4CCC(=O)NC4=O)CC3)CC1)c1nnc(C)n1-2 (stereo not given in full)")
"> 95%"
>>> observed_value("Cc1sc2c(c1C)C(c1ccc(Cl)cc1)=N[C@@H](CC(=O)N1CCC(CN3CCN(c4ccc5c(c4)C(=O)N(C4CCC(=O)NC4=O)C5=O)CC3)CC1)c1nnc(C)n1-2 (stereo not given in full)")
"> 95%"
>>> observed_value("Cc1sc2c(c1C)C(c1ccc(Cl)cc1)=N[C@@H](CC(=O)N1CCC(CN3CCN(c4ccc5c(c4)n(C)c(=O)n5C4CCC(=O)NC4=O)CC3)CC1)c1nnc(C)n1-2 (stereo not given in full)")
"> 95%"
>>> observed_value("Cc1sc2c(c1C)C(c1ccc(Cl)cc1)=N[C@@H](CC(=O)N1CCC(CN3CCN(c4ccc5c(c4)CN(C4CCC(=O)NC4=O)C5=O)CC3)CC1)c1nnc(C)n1-2 (stereo not given in full)")
"> 95%"
>>> observed_value("Cc1sc2c(c1C)C(c1ccc(Cl)cc1)=N[C@@H](CC(=O)N1CCC(CN3CCN(c4ccc(NC5CCC(=O)NC5=O)cc4)CC3)CC1)c1nnc(C)n1-2 (stereo not given in full)")
"< 50%"

* * *

# protocol_text: Kinetic aqueous solubility of the compound at pH 7.4
# Assay type: physicochemical
# test_settings: read-out: Kinetic_solubility
We begin with a simple list: items and their reported solubility kinetic.
assay_readout: solubility kinetic (µM)

>>> observed_value("Cc1sc2c(c1C)C(c1ccc(Cl)cc1)=N[C@@H](CC(=O)N1CCC(CN3CCN(c4ccc(C5CCC(=O)NC5=O)cc4)CC3)CC1)c1nnc(C)n1-2 (stereo partly drawn)")
48.4
>>> observed_value("Cc1sc2c(c1C)C(c1ccc(Cl)cc1)=N[C@@H](CC(=O)N1CCC(CN3CCN(c4ccc5c(c4)C(=O)N(C4CCC(=O)NC4=O)C5=O)CC3)CC1)c1nnc(C)n1-2 (stereo partly drawn)")
10.5
>>> observed_value("Cc1sc2c(c1C)C(c1ccc(Cl)cc1)=N[C@@H](CC(=O)N1CCC(CN3CCN(c4ccc5c(c4)oc(=O)n5C4CCC(=O)NC4=O)CC3)CC1)c1nnc(C)n1-2 (stereo partly drawn)")
14.8
>>> observed_value("Cc1sc2c(c1C)C(c1ccc(Cl)cc1)=N[C@@H](CC(=O)NCCCCCNC(=O)COc1ccc(C3CCC(=O)NC3=O)cc1)c1nnc(C)n1-2 (stereo partly drawn)")
24.4
>>> observed_value("Cc1sc2c(c1C)C(c1ccc(Cl)cc1)=N[C@@H](CC(=O)N1CCC(CN3CCN(c4ccc5c(c4)CN(C4CCC(=O)NC4=O)C5=O)CC3)CC1)c1nnc(C)n1-2 (stereo partly drawn)")
48.4
>>> observed_value("Cc1sc2c(c1C)C(c1ccc(Cl)cc1)=N[C@@H](CC(=O)NCCCOc1ccc(C3CCC(=O)NC3=O)cc1)c1nnc(C)n1-2 (stereo partly drawn)")
52.8
>>> observed_value("Cc1sc2c(c1C)C(c1ccc(Cl)cc1)=N[C@@H](CC(=O)N1CCN(c3cccc(C4CCC(=O)NC4=O)c3)CC1)c1nnc(C)n1-2 (stereo partly drawn)")
21.5
>>> observed_value("Cc1sc2c(c1C)C(c1ccc(Cl)cc1)=N[C@@H](CC(=O)N1CCC(CN3CCN(c4cc5c(cc4F)C(=O)N(C4CCC(=O)NC4=O)C5=O)CC3)CC1)c1nnc(C)n1-2 (stereo partly drawn)")
73.4
>>> observed_value("Cc1sc2c(c1C)C(c1ccc(Cl)cc1)=N[C@@H](CC(=O)N1CCC(CN3CCN(c4ccc(NC5CCC(=O)NC5=O)cc4)CC3)CC1)c1nnc(C)n1-2 (stereo partly drawn)")
5.7
>>> observed_value("Cc1sc2c(c1C)C(c1ccc(Cl)cc1)=N[C@@H](CC(=O)N1CCN(c3ccc(C4CCC(=O)NC4=O)cc3)CC1)c1nnc(C)n1-2 (stereo partly drawn)")
17
>>> observed_value("Cc1sc2c(c1C)C(c1ccc(Cl)cc1)=N[C@@H](CC(=O)N1CCC(CN3CCN(c4ccc5c(c4)n(C)c(=O)n5C4CCC(=O)NC4=O)CC3)CC1)c1nnc(C)n1-2 (stereo partly drawn)")
74.5
>>> observed_value("Cc1sc2c(c1C)C(c1ccc(Cl)cc1)=N[C@@H](CC(=O)N1CC(COc3ccc(C4CCC(=O)NC4=O)cc3)C1)c1nnc(C)n1-2 (stereo partly drawn)")
21.3
>>> observed_value("Cc1sc2c(c1C)C(c1ccc(Cl)cc1)=N[C@@H](CC(=O)NCCc1ccc(C3CCC(=O)NC3=O)cc1)c1nnc(C)n1-2 (stereo partly drawn)")
71.4
